Below: a set of entries, each annotated with reported IC50.
Target: GDP-bound KRAS protein (aa 1-169), containing both G12C and C118A amino acid substitutions (Homo sapiens, UniProt P01116, C118A/G12C)
Sequence (P01116 1-169 isoform P01116-2 G12C/C118A): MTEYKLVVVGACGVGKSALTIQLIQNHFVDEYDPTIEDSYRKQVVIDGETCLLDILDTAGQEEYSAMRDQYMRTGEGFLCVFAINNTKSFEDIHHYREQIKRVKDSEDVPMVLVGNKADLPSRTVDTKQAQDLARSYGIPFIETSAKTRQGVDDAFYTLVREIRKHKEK
Assay: Coupled Nucleotide Exchange Assay (Table 16 conditions: 5 min pre-incubation)
Type: biochemical
Details: 5 min compound pre-incubation; SOS-mediated nucleotide exchange, AlphaScreen
Note: state the figure and append the unit.

compound="C=CC(=O)N1CCN(c2nc(=O)n(-c3c(C)cnn3C(C)C)c3nc(-c4ccccc4F)c(Cl)cc23)[C@@H](C)C1 [Example 53]" quantity=IC50 endpointvalue="125 nM"
compound="C=CC(=O)N1CCN(c2nc(=O)n(-c3c(C)ccnc3C3CC3)c3nc(-c4c(O)cccc4F)c(Cl)cc23)[C@@H](C)C1 [Example 44-2]" quantity=IC50 endpointvalue="208 nM"
compound="C=CC(=O)N1CCN(c2nc(=O)n(-c3c(C)ccnc3C3CC3)c3nc(-c4c(O)cccc4F)c(Cl)cc23)[C@@H](C)C1 [Example 44-1]" quantity=IC50 endpointvalue="33 nM"

Supply reported IC50 belonging to this compound: C=CC(=O)N1CCN(c2nc(=O)n(-c3c(C)cnn3C(C)C)c3nc(-c4ccccc4F)c(Cl)cc23)[C@@H](C)C1 (single isomer, unassigned) [Example 53-1]
98 nM

Look up and report measured IC50 for this entry: C=CC(=O)N1CCN(c2nc(=O)n(-c3c(C)cccc3C(C)C)c3nc(-c4c(O)cccc4F)c(Cl)cc23)[C@@H](C)C1 [Example 39]
63 nM

Name the recorded IC50 of the compound listed here: C=CC(=O)N1CCN(c2nc(=O)n(-c3c(C)ccnc3C3CC3)c3nc(-c4ccccc4F)c(Cl)cc23)[C@@H](C)C1 (single isomer, unassigned) [Example 45-2]
727 nM
